Test system: RBL-2H3
protocol: Antiallergic activity against anti-DNP-IgE sensitized rat RBL-2H3 cells assessed as […] of degranulation by measuring beta-hexosaminidase release using P-nitrophenyl-N-acetyl-D-glucosamide as substrate at 0.2 uM measured after 1 hr by microplate reader relative to control
Assay type: functional
measuredParameter: inhibition at 0.2 µM (%)
Answer with a number only, understood to be in %.

Worked cases, answers included:
COc1cc(NC(=O)c2ccc(C)c(C#Cc3cc(Cl)cnc3N)c2)cc(OC)c1 ... 37
COc1cc(NC(=O)c2ccc(Br)c(C#Cc3cc(-c4cnn(C)c4)cnc3N)c2)cc(OC)c1 ... 36.6
COc1cc(NC(=O)c2ccc(C)c(C#Cc3cc(-c4cnn(C)c4)cnc3N)c2)cc(OC)c1OC ... 103
Cc1ccc(C(=O)Nc2ccccc2Cl)cc1C#Cc1cc(-c2cnn(C)c2)cnc1N ... -5.24
Cc1ccc(C(=O)Nc2ccc3c(c2)OCCO3)cc1C#Cc1cc(-c2cnn(C)c2)cnc1N ... 102
Cc1ccc(C(=O)Nc2ccc(OC(F)(F)F)cc2)cc1C#Cc1cc(-c2cnn(C)c2)cnc1N ... 122
COc1cc(NC(=O)c2ccc(C(F)(F)F)c(C#Cc3cc(-c4cnn(C)c4)cnc3N)c2)cc(OC)c1 ... -2.84
COc1cc(NC(=O)c2ccc(C)c(C#Cc3cccnc3N)c2)cc(OC)c1 ... 3.01

Which inhibition at 0.2 µM value belongs to `Cc1ccc(C(=O)Nc2cc(C(F)(F)F)cc(C(F)(F)F)c2)cc1C#Cc1cc(-c2cnn(C)c2)cnc1N` ?
162

----------
targetOrTestSystem: Tyrosine-protein kinase ABL1 (Homo sapiens, UniProt P00519)
Sequence (P00519 whole entry): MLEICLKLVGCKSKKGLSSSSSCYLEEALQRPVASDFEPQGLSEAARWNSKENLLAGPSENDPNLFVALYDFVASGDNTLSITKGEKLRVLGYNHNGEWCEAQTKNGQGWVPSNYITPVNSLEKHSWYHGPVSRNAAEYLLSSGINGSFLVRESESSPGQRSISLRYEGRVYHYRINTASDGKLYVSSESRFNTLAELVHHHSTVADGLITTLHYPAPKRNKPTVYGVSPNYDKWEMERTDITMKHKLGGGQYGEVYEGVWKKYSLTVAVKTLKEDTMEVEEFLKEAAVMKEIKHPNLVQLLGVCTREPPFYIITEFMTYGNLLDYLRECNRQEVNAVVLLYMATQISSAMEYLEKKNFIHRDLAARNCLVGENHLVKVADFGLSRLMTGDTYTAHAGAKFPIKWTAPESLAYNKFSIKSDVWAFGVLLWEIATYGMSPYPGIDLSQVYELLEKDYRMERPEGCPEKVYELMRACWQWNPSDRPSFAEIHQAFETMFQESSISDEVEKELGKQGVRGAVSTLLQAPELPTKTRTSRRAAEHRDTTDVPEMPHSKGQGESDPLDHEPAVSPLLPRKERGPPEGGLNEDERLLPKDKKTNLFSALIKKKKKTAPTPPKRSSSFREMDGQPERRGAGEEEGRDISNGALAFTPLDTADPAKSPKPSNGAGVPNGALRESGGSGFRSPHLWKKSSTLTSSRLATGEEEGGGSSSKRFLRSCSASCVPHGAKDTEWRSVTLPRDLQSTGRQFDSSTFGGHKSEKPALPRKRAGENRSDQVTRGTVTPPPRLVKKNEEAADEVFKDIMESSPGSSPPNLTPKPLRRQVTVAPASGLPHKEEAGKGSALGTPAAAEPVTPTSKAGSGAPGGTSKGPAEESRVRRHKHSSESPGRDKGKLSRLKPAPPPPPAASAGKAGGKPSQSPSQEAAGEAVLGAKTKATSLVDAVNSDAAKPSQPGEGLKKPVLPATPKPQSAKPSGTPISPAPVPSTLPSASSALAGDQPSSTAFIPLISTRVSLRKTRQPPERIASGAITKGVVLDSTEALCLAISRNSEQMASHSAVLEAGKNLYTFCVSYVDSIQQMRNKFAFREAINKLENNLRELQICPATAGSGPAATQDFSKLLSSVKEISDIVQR
protocol: Inhibition of human recombinant ABL1 using ATP/Ulight-TK peptide incubated for 15 mins
measuredParameter: pIC50
pIC50 is a log-scale quantity: -log10 of the concentration expressed in molar.

Cc1ccc(C(=O)Nc2cc(C(F)(F)F)cc(C(F)(F)F)c2)cc1C#Cc1cc(-c2cnn(C)c2)cnc1N ... 7.66

Could you share which pIC50 value was measured for `Cc1ccc(C(=O)Nc2ccc(Cl)cc2Cl)cc1C#Cc1cc(-c2cnn(C)c2)cnc1N` ?
8.15

----------
Each entry below carries its reported selectivity ratio.
protocol: Therapeutic index, ratio of CC50 for rat RBL2H3 cells to IC50 for Antiallergic activity against anti-DNP-IgE sensitized rat RBL-2H3 cells
Format: toxicity
condition: read-out: TI
The response must contain the number and no unit.

Worked examples, 2 compounds total:
Cc1ccc(C(=O)Nc2ccc(C(F)(F)F)cc2)cc1C#Cc1cc(-c2cnn(C)c2)cnc1N ... 2.3
Cc1ccc(C(=O)Nc2cccc(OC(F)(F)F)c2)cc1C#Cc1cc(-c2cnn(C)c2)cnc1N ... 12.9

Need selectivity ratio of `Cc1ccc(C(=O)Nc2cccc(Cl)c2)cc1C#Cc1cc(-c2cnn(C)c2)cnc1N` , thanks.
3.8

Request: `Cc1ccc(C(=O)Nc2cc(C(F)(F)F)cc(C(F)(F)F)c2)cc1C#Cc1cc(-c2cnn(C)c2)cnc1N`
148

----------
targetOrTestSystem: UniProtKB Q9H3Y6
Sequence (Q9H3Y6 whole entry): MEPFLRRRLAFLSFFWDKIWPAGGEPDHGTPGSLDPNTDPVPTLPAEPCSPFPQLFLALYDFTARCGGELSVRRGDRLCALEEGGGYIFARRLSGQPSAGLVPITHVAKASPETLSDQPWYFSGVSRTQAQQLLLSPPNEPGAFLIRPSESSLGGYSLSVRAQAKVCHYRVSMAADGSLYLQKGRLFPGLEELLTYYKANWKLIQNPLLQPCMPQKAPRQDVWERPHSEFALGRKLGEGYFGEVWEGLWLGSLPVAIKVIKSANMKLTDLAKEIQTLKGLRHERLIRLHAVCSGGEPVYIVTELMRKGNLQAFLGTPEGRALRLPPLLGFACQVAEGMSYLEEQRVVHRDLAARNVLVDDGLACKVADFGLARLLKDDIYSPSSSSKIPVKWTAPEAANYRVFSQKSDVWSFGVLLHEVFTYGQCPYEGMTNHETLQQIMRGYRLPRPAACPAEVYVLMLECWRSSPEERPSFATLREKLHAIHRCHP
measuredParameter: IC50 (nM)
Return type: number; implicit unit nM.

Recorded IC50 of `Cc1ccc(C(=O)Nc2cc(C(F)(F)F)cc(C(F)(F)F)c2)cc1C#Cc1cc(-c2cnn(C)c2)cnc1N` , please.
114

----------
targetOrTestSystem: Tyrosine-protein kinase Lck (Homo sapiens, UniProt P06239)
Sequence (P06239 whole entry): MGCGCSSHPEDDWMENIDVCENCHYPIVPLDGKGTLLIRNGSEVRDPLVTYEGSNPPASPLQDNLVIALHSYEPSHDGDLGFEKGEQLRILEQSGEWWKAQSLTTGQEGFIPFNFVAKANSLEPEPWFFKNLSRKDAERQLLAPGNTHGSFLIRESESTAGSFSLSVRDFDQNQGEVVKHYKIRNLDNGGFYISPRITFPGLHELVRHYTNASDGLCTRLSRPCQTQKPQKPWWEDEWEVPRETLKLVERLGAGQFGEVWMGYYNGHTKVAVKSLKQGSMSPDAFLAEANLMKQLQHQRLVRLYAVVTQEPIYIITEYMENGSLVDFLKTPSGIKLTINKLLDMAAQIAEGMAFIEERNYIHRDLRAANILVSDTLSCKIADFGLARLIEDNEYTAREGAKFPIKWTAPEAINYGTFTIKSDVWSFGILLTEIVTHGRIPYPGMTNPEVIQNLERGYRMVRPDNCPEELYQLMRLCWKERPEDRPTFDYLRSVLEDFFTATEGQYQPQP
protocol: Inhibition of human full length recombinant LCK by radiometric scintillation counting analysis
Reported IC50 values for a set of compounds

Cc1ccc(C(=O)Nc2cc(C(F)(F)F)cc(C(F)(F)F)c2)cc1C#Cc1cc(-c2cnn(C)c2)cnc1N ... 101 nM

Which IC50 value belongs to `Cc1ccc(C(=O)Nc2ccc(Cl)cc2Cl)cc1C#Cc1cc(-c2cnn(C)c2)cnc1N` ?
29 nM

----------
Tested on: RBL-2H3
protocol: Antiallergic activity against anti-DNP-IgE sensitized rat RBL-2H3 cells assessed as […] of degranulation by measuring beta-hexosaminidase release using P-nitrophenyl-N-acetyl-D-glucosamide as substrate at 1 uM measured after 1 hr by microplate reader relative to control
Type: functional
measuredParameter: inhibition at 1 µM (%)
Unit % implied. Number only.

The following compounds have reported results that may help.
CNC(=O)c1cnc(N)c(C#Cc2cc(C(=O)Nc3cc(OC)cc(OC)c3)ccc2C)c1 ... 66.2
COc1cc(NC(=O)c2ccc(F)c(C#Cc3cc(-c4cnn(C)c4)cnc3N)c2)cc(OC)c1 ... 30.9
COc1cc(NC(=O)c2ccc(C)c(C#Cc3cc(Cl)cnc3N)c2)cc(OC)c1 ... 50.9

Now for a further compound.
inhibition at 1 µM lookup needed for `Cc1ccc(C(=O)Nc2ccc(C(F)(F)F)c(C(F)(F)F)c2)cc1C#Cc1cc(-c2cnn(C)c2)cnc1N` , thanks.
144

----------
protocol: Half life in BALB/c mouse at 20 mg/kg, po measured up to 24 hrs by LC-MS/MS analysis
Assay type: ADME, organism-based
condition: in vivo
measuredParameter: half-life (h)
Give the value in h but do not write h after it.

Can you look up the measured half-life of `Cc1ccc(C(=O)Nc2cc(C(F)(F)F)cc(C(F)(F)F)c2)cc1C#Cc1cc(-c2cnn(C)c2)cnc1N` for me?
6.9

----------
protocol: MRT in BALB/c mouse at 20 mg/kg, po measured up to 24 hrs by LC-MS/MS analysis
Assay type: ADME, organism-based
condition: in vivo
measuredParameter: MRT (h)
Reply with just the number (in h).

Report MRT for `Cc1ccc(C(=O)Nc2cc(C(F)(F)F)cc(C(F)(F)F)c2)cc1C#Cc1cc(-c2cnn(C)c2)cnc1N` please.
11.2

----------
targetOrTestSystem: Tyrosine-protein kinase Fyn (Homo sapiens, UniProt P06241)
Sequence (P06241 whole entry): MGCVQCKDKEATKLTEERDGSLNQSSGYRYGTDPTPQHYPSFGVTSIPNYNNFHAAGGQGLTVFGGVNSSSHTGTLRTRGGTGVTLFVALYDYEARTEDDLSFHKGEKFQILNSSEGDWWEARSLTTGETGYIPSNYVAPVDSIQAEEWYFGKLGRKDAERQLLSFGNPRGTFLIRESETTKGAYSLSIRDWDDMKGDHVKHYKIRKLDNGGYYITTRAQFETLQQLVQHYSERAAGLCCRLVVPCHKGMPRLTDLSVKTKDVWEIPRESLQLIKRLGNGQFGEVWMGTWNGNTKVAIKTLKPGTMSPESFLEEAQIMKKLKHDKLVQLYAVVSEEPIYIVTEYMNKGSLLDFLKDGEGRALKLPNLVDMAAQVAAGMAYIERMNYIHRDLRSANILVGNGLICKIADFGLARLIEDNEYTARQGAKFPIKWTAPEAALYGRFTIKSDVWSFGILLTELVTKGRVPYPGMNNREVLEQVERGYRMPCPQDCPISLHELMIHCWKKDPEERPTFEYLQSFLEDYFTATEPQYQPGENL
protocol: Inhibition of human full length recombinant Fyn by radiometric scintillation counting analysis
measuredParameter: pIC50
To interpret pIC50, take it as minus log10 of a concentration measured in moles per litre.

Cc1ccc(C(=O)Nc2cc(C(F)(F)F)cc(C(F)(F)F)c2)cc1C#Cc1cc(-c2cnn(C)c2)cnc1N ... 7.25

Continue with the compound presented below.
Given the entry `Cc1ccc(C(=O)Nc2ccc(Cl)cc2Cl)cc1C#Cc1cc(-c2cnn(C)c2)cnc1N` , report its measured pIC50.
6.51

----------
targetOrTestSystem: TXK (Homo sapiens)
Sequence (P42681 whole entry, looked up): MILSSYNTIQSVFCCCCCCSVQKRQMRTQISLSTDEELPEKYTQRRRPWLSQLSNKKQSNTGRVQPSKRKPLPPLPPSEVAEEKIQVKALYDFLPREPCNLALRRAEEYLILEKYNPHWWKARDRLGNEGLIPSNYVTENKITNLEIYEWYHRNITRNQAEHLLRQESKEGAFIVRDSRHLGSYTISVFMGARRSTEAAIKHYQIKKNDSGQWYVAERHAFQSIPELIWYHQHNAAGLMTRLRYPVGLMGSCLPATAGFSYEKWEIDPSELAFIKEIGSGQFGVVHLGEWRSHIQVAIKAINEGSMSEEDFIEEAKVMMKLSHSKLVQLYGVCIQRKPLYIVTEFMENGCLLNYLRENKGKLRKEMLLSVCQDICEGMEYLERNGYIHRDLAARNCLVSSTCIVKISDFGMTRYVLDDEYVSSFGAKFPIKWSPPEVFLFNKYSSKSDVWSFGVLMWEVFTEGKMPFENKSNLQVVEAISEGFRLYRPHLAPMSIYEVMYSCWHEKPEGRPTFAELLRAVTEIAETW
protocol: Inhibition of human recombinant Txk (256 to end) by radiometric scintillation counting analysis
measuredParameter: pIC50
Please express pIC50 as -log10 of the molar concentration.

Form field: reported pIC50 of `Cc1ccc(C(=O)Nc2cc(C(F)(F)F)cc(C(F)(F)F)c2)cc1C#Cc1cc(-c2cnn(C)c2)cnc1N`
6.73

----------
protocol: Volume of distribution at steady state in BALB/c mouse at 2 mg/kg, iv measured up to 24 hrs by LC-MS/MS analysis
Format: ADME, organism-based
condition: in vivo, read-out: Vdss
measuredParameter: Vd (L/kg)
Your answer is read as L/kg, so omit the unit and give the number.

Which value of Vd has been reported for `Cc1ccc(C(=O)Nc2cc(C(F)(F)F)cc(C(F)(F)F)c2)cc1C#Cc1cc(-c2cnn(C)c2)cnc1N` in the records?
4

----------
Tested on: RBL-2H3
protocol: Antiallergic activity against anti-DNP-IgE sensitized rat RBL-2H3 cells assessed as […] of degranulation by measuring beta-hexosaminidase release using P-nitrophenyl-N-acetyl-D-glucosamide as substrate at 0.2 uM measured after 1 hr by microplate reader relative to control
Format: functional
Parameter threshold = 60%. Response is yes when inhibition at 0.2 µM meets or exceeds it, else no.

Would you please look over these solved cases?
Cc1ccc(C(=O)Nc2ccc(Cl)c(C(F)(F)F)c2)cc1C#Cc1cc(-c2cnn(C)c2)cnc1N ... yes
Cc1ccc(C(=O)Nc2ccc(Cl)cc2)cc1C#Cc1cc(-c2cnn(C)c2)cnc1N ... yes
COc1cc(NC(=O)c2ccc(OC)c(C#Cc3cc(-c4cnn(C)c4)cnc3N)c2)cc(OC)c1 ... no

Dear colleague, could you confirm whether `Cc1ccc(C(=O)Nc2ccccc2)cc1C#Cc1cc(-c2cnn(C)c2)cnc1N` has inhibition at 0.2 µM at or above 60%?
no

----------
System: RBL-2H3
protocol: Antiallergic activity against anti-DNP-IgE sensitized rat RBL-2H3 cells assessed as […] of degranulation by measuring beta-hexosaminidase release using P-nitrophenyl-N-acetyl-D-glucosamide as substrate at 0.2 uM measured after 1 hr by microplate reader relative to control
Format: functional
measuredParameter: inhibition at 0.2 µM (%)
The reply should contain only the number, in %.

Value lookup for inhibition at 0.2 µM; key = `COc1ccc(NC(=O)c2ccc(C)c(C#Cc3cc(-c4cnn(C)c4)cnc3N)c2)cc1OC`
49.7

Now consider `COc1cc(NC(=O)c2ccc(Cl)c(C#Cc3cc(-c4cnn(C)c4)cnc3N)c2)cc(OC)c1` .
9.97

Please give the result for `COc1cccc(NC(=O)c2ccc(C)c(C#Cc3cc(-c4cnn(C)c4)cnc3N)c2)c1` too.
80.5

----------
protocol: Clearance in BALB/c mouse at 2 mg/kg, iv measured up to 24 hrs by LC-MS/MS analysis
Format: ADME, organism-based
condition: in vivo
measuredParameter: clearance (mL/min/kg)
Express your answer in mL/min/kg, writing the number without its unit.

Sample `Cc1ccc(C(=O)Nc2cc(C(F)(F)F)cc(C(F)(F)F)c2)cc1C#Cc1cc(-c2cnn(C)c2)cnc1N` — what was its clearance?
15.2
